Consider the following sequences and their measured ETS1 binding intensity readings.
Biological target: ETS1 (UniProt P14921)
Sequence: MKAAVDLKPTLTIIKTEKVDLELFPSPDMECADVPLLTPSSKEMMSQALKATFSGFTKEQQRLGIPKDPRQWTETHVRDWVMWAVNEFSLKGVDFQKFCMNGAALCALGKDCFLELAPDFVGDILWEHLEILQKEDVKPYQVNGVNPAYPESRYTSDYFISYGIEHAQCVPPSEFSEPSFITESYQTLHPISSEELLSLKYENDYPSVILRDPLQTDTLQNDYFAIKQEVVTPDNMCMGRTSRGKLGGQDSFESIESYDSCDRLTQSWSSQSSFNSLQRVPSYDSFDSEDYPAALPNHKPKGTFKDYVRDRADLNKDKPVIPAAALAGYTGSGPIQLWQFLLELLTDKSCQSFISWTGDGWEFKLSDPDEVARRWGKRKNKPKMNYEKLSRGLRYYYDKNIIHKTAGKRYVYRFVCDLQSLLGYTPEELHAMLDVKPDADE
Test: ETS1 binding intensity (PBM fluorescence), ETS1 alone (arbitrary fluorescence units); higher = stronger binding
Settings: ETS1 concentration 1 nM; RUNX1 concentration 0 nM
# respond with the number and nothing more

Input: I am curious: what ETS1 binding intensity value has been reported for ACAAGAGGAAGTGAGTCTACCCATGATGCGGTCACA ?
Output: 707

Input: Consider the sequence CAGGCAGGATGTTGACTCAGCTGCCAAGTGGTTTTG and give its measured ETS1 binding intensity.
Output: 1340

Input: Using the record for AATCATCAGGGAAATGCAAATCAAAACCACAATCAG , report its ETS1 binding intensity.
Output: 547

Input: Which ETS1 binding intensity is listed for GGTCTCACCGCTCTTCCGCTTGCGGTTTCGGGGGCC ?
Output: 780

Input: // query ETS1 binding intensity value for entry CTGCCTTTCCTGCTAGGGTACAAACCACAGCCTTAG
Output: 369

Input: What value of measured ETS1 binding intensity is listed for TAGCCACGAACCGGAAACGTTAAACCACAGCTCCGT ?
Output: 9650

Input: ETS1 binding intensity for GTGACCCAATACTTCCTGCCACAATACTGAGAACTC ?
Output: 841

Input: So what's the measured ETS1 binding intensity for this one? TGCGCCGGGAGGAAGGGCTCCAAAACCACAGGGCGG
Output: 411

Input: Given ATGAGCTATTTCCTGCCTTGTGGTCAGAGCCAGACT , state its recorded ETS1 binding intensity.
Output: 1640
